target: human GLP-1R (Homo sapiens, UniProt P43220, G168S); test: CHO GLP-1R Clone H6—Assay 1: HTRF cAMP cell-based functional agonist assay (high GLP-1R density); conditions: read-out: Assay 1 EC50; CHO GLP-1R Clone H6, cAMP HTRF; geometric mean
Sequence (P43220 24-463 G168S limits assumed): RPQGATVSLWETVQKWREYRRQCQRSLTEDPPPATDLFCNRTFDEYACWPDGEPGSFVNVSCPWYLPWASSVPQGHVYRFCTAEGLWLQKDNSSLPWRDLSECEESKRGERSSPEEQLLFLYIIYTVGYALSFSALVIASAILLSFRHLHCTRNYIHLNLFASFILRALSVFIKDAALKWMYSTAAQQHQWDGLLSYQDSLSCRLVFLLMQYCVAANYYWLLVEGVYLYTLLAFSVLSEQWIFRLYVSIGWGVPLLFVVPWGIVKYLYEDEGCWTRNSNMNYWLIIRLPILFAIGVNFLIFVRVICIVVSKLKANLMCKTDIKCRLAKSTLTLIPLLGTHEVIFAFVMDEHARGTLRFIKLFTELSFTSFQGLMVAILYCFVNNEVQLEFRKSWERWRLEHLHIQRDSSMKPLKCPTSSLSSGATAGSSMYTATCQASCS
MEASURED_PROPERTY: EC50 (nM)
Could you give me the number in nM? Just the number is fine.

Consider the reported EC50 for these compounds:
COCCn1c(CN2CCN(c3cccc(OCc4ccc(Cl)cc4F)n3)C[C@@H]2CO)nc2ccc(C(=O)O)cc21 [Example 12A-09] :: 21
COCCn1c(CN2CCN(c3nc(OCc4ccc(Cl)cc4F)ccc3F)C[C@@H]2C)nc2ccc(C(=O)O)cc21 [Example 1A-06] :: 29
COCCn1c(CN2CCC(c3cccc(OCc4ccc(C#N)cc4)n3)CC2)nc2cc(F)c(C(=O)O)cc21 [Example 2A-14] :: 110

Consider the additional compound presented here.
Query string: Give the reported EC50 for O=C(O)c1ccc2nc(CN3CCC(c4cccc(OCc5ccc(Cl)cc5F)n4)CC3)n(CCC(F)(F)F)c2c1 [Example 11A-73] (system: human GLP-1R (Homo sapiens, UniProt P43220, G168S)).
Result string: 150
